Biological target: cellular tyrosinase in B16F10 cells (Mus musculus)
Construct: endogenous in cells
Sequence (P11344 19-533): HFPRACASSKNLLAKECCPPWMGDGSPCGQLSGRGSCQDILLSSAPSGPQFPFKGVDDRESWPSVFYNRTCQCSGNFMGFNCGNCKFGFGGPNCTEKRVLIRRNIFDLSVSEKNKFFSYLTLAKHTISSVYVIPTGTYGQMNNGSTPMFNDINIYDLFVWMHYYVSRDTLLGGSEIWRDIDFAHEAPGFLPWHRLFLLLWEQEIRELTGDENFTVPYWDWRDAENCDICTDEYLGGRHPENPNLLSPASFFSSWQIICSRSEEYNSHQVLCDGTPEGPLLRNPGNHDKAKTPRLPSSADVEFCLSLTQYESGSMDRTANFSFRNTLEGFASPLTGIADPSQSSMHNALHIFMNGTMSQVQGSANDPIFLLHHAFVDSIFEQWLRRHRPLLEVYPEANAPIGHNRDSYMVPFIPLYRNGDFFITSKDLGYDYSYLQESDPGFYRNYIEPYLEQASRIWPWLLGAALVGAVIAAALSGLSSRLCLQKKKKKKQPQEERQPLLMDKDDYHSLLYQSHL
Test: Intracellular tyrosinase activity in B16F10 cells
Details: B16F10 cells exposed for 48 hours; non-linear curve fitting; read-out: IC50-Cellular tyrosinase inhibition
Measured IC50 of individual entries
PROPERTY MEASURED: IC50

> print(dat)
                                   compound  measurement
1  COc1cc(/C=C/C(=O)C(C(=O)/C=C/c2ccc(O)c(OC)c2)C(=O)Nc2ccccc2)ccc1O        13 µM
2  COC(=O)C(C(=O)C=Cc1ccc(O)c(OC)c1)C(=O)C=Cc1ccc(O)c(OC)c1 (stereo not drawn)      50.7 µM
3  COC(=O)C(C(=O)/C=C/c1ccc(O)cc1)C(=O)/C=C/c1ccc(O)cc1      4.69 µM

---

System: B16F10 cells
Experiment: Melanin content quantification in B16F10 cells
Assay type: cell-based, mouse
Settings: Mus musculus, B16-F10; B16F10 cells exposed for 48 hours; non-linear curve fitting; read-out: IC50-Melanin Inhibition
PROPERTY MEASURED: IC50 (µM)

> print(dat)
                                chem.smiles  measurement
1  COc1cc(/C=C/C(=O)CC(=O)/C=C/c2ccc(O)c(OC)c2)ccc1O         20.8
